# target of assay: NET (h) (Homo sapiens, UniProt P23975)
# Construct: expressed in transfected cells; host or cells: MDCK
# Sequence (P23975 whole entry): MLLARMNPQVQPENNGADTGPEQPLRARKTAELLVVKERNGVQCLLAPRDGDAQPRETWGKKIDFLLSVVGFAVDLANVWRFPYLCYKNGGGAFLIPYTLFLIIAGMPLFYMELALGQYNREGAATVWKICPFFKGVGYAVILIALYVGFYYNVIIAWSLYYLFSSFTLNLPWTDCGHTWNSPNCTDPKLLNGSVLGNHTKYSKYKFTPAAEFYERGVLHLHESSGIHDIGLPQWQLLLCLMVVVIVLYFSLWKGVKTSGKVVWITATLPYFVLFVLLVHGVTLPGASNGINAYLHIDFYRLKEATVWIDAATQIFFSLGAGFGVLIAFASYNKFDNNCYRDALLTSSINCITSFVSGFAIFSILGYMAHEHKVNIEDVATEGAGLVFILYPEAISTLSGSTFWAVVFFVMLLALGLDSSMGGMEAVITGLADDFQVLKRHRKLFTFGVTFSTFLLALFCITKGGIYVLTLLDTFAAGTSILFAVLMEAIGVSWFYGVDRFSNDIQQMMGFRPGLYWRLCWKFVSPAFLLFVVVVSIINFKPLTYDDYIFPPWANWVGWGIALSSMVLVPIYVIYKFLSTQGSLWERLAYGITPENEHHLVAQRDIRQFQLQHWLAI
# test: cell-based
# Type: cell-based
# assay context: human; nM; read-out: NET (h) in vitro functional uptake
Listed here are molecules together with their documented EC50.
reported endpoint: EC50 (nM)

# molecule, unit info, number
measured = [
    ("C[C@@H]1CC[C@@H](COc2ccc(C(F)(F)F)cc2)CN1C[C@@H](O)C1(c2ccc(Cl)cc2)CCC1", "nM", 5),
    ("CC(C)C[C@@H](N)C1(c2ccc(Cl)cc2)CCC1 [R-DDMS, reference compound]", "nM", 200),
    ("C[C@H]1CC[C@@H](COc2ccc(C(F)(F)F)cc2)CN1C[C@@H](O)C1(c2ccc(Cl)cc2)CCC1", "nM", 5),
]
